- TESTED ON: VR1 (Homo sapiens, UniProt Q8NER1)
- Sequence (Q8NER1 whole entry): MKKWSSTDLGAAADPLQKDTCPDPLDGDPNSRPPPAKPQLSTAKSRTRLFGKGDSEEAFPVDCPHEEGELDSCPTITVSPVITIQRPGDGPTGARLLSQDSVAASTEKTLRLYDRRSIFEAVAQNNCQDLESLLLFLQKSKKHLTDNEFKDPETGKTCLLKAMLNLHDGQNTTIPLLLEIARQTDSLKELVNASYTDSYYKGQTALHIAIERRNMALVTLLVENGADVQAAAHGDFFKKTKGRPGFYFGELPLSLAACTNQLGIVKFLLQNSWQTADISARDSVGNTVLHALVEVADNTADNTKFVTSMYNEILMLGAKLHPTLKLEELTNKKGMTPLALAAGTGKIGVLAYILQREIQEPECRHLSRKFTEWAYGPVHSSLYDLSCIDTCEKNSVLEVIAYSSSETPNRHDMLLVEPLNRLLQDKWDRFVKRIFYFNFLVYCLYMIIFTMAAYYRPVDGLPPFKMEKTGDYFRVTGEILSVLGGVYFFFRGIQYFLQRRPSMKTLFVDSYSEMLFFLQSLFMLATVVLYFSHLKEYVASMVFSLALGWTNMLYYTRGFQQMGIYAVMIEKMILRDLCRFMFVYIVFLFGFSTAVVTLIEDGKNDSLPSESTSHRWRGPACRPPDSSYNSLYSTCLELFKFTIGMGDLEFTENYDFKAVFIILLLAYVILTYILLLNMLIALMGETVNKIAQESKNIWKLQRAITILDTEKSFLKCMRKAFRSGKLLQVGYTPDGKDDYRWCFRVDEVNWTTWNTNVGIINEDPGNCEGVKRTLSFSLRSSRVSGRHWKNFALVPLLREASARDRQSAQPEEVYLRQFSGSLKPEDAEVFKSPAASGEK
- ASSAY OVERVIEW: Calcium uptake assay, low pH (proton) agonist
- Format: cell-based
- Parameters: expressed in transfected cells; host or cells: T-REx HEK 293 (Invitrogen), pcDNA5/TO vector
- CONDITION DETAILS: HEK293; 0.3 μM compound; low pH (protons) as agonist; HEK 293 cells expressing hVR1; read-out: Low pH % Inhib. @ 0.3 μM
READOUT LABEL: inhibition at 0.3 µM (%)
Just the number in %, nothing appended.

Looking up O=C(Nc1ccc2c(c1)OCC(CO)N2)c1ccc(C#CC2CC2)cc1Cl (stereo not drawn) [Compound 156] , I found its inhibition at 0.3 µM recorded as 102

Per the records, this compound ( Cc1cc(/C=C/C(F)(F)F)ccc1C(=O)Nc1cnc2scnc2c1 [Compound 415] ) has inhibition at 0.3 µM equal to 130

inhibition at 0.3 µM recorded for this compound, Cc1cc(/C=C/C(F)(F)F)ccc1C(=O)Nc1cnc2cc(C(C)O)cnc2c1 (stereo not drawn) [Compound 320] , is 47

// inhibition at 0.3 µM value for Cc1cc(/C=C/C(F)(F)F)ccc1C(=O)Nc1cnc2cccnc2c1 [Compound 318] : 104

Entry Cc1cc(/C=C/C(F)(F)F)ccc1C(=O)Nc1cnc2cc(CO)cnc2c1 [Compound 317] ; inhibition at 0.3 µM = 100

Noted for Cc1cc(/C=C/C(F)(F)F)ccc1C(=O)Nc1ccc2sc(C(C)O)nc2c1 (stereo not drawn) [Compound 403] : its inhibition at 0.3 µM reads 81

Lab book: inhibition at 0.3 µM of Cc1cc(/C=C/C(F)(F)F)ccc1C(=O)Nc1ccc2c(c1)N(S(C)(=O)=O)CC2 [Compound 401] noted as 88

// Cc1cc(/C=C/C(F)(F)F)ccc1C(=O)Nc1cnc2sc(CO)nc2c1 [Compound 413] : inhibition at 0.3 µM value = 110

For Cc1cc(/C=C/C(F)(F)F)ccc1C(=O)Nc1cnc2c(c1)COC(CO)C2 (stereo not drawn) [Compound 310] the compound record lists inhibition at 0.3 µM as 71

Reported inhibition at 0.3 µM of CS(=O)(=O)c1cc(C#CC2CCCC2)ccc1C(=O)Nc1ccc2c(c1)OCCO2 [Compound 159] : 0

Noted for Cc1cc(/C=C/C(F)(F)F)ccc1C(=O)Nc1ccc2nccnc2c1 [Compound 325] : its inhibition at 0.3 µM reads 72.3

Record CCC(=O)N1CCc2ccc(NC(=O)c3ccc(/C=C/C(F)(F)F)cc3C)cc21 [Compound 406] , field inhibition at 0.3 µM: 45

inhibition at 0.3 µM in this record for Cc1cc(/C=C/C(F)(F)F)ccc1C(=O)Nc1ccc2cc(COCCO)cnc2c1 [Compound 305] : 105

Record summary for Cc1cc(/C=C/C(F)(F)F)ccc1C(=O)Nc1cccc2c1C[C@H](O)CC2 (single isomer, unassigned) [Compound 314] : reported inhibition at 0.3 µM = 121

Memo: Cc1cc(/C=C/C(F)(F)F)ccc1C(=O)Nc1ccc2c(c1)C(O)CCC2 (stereo not drawn) [Compound 307] , reported inhibition at 0.3 µM: 75

Looking up Cc1cc(/C=C/C(F)(F)F)ccc1C(=O)Nc1cnc2c(c1)CCCC2 [Compound 312] , I found its inhibition at 0.3 µM recorded as 97

Lab note: measured inhibition at 0.3 µM of C/C(=C\c1ccc(C(=O)Nc2cnc3ccccc3c2)c(C)c1)C(F)(F)F [Compound 316] was 52

So for O=C(Nc1ccc2c(c1)OCCN2)c1ccc(C#CC2CC2)nc1Cl [Compound 119] , the logged inhibition at 0.3 µM turned out to be 0

The reported value for Cc1cc(/C=C/C(F)(F)F)ccc1C(=O)Nc1cccc2c1CC(O)CC2 (racemic) [Compound 309] in terms of inhibition at 0.3 µM is 107

Lookup result for Cc1cc(/C=C/C(F)(F)F)ccc1C(=O)Nc1ccc2sc(C(C)(C)O)nc2c1 [Compound 409] ; measured inhibition at 0.3 µM: 103

// inhibition at 0.3 µM value for Cc1cc(/C=C/C(F)(F)F)ccc1C(=O)Nc1ccc2oc(CO)nc2c1 [Compound 411] : 102

Noted for CC(=O)N1CCCc2ccc(NC(=O)c3ccc(/C=C/C(F)(F)F)cc3C)cc21 [Compound 322] : its inhibition at 0.3 µM reads 42.7

get_value(item= Cc1cc(/C=C/C(F)(F)F)ccc1C(=O)Nc1cnc2c(c1)CC(O)CC2 (stereo not drawn) [Compound 315] , readout=inhibition at 0.3 µM) returns 51.3

Notebook: Cc1cc(/C=C/C(F)(F)F)ccc1C(=O)Nc1ccc2cc(C(=O)O)cnc2c1 [Compound 301] , inhibition at 0.3 µM read as 43

For Cc1cc(/C=C/C(F)(F)F)ccc1C(=O)Nc1ccc2cc(C(C)(C)O)cnc2c1 [Compound 303] the compound record lists inhibition at 0.3 µM as 90

For CC(=O)c1nc2cc(NC(=O)c3ccc(/C=C/C(F)(F)F)cc3C)ccc2s1 [Compound 410] the compound record lists inhibition at 0.3 µM as 12

The measured inhibition at 0.3 µM associated with Cc1cc(/C=C/C(F)(F)F)ccc1C(=O)Nc1cccc2c1C[C@@H](O)CC2 (single isomer, unassigned) [Compound 313] reads 106

Note to self: inhibition at 0.3 µM recorded for Cc1cc(/C=C/C(F)(F)F)ccc1C(=O)Nc1ccc2c(CO)n[nH]c2c1 [Compound 231] was 0

# inhibition at 0.3 µM of CC(=O)c1cnc2cc(NC(=O)c3ccc(/C=C/C(F)(F)F)cc3C)cnc2c1 [Compound 324] = 0.74

response.value for Cc1cc(/C=C/C(F)(F)F)ccc1C(=O)Nc1cnc2ncccc2c1 [Compound 321] (field: inhibition at 0.3 µM) = 41.5

Per the records, this compound ( Cc1cc(/C=C/C(F)(F)F)ccc1C(=O)Nc1ccc2c(c1)C(=O)CCC2 [Compound 306] ) has inhibition at 0.3 µM equal to 51

Entry Cc1cc(/C=C/C(F)(F)F)ccc1C(=O)Nc1ccc2cc(C(O)CO)cnc2c1 (stereo not drawn) [Compound 308] — recorded inhibition at 0.3 µM = 101

# compound Cc1nc2cc(NC(=O)c3ccc(/C=C/C(F)(F)F)cc3C)cnc2s1 [Compound 412] ; its inhibition at 0.3 µM = 105
